All values here come from PubChem BioAssay AID1159580.

test: chemical genetic growth profiling, strain panel (AID 1159580);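 note: tested at 20 µM; growth read once vehicle control cultures reached saturation at 30 °C; 1 = growth at the plate median or of vehicle wells; lower values mean less growth of the strain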; settings: S. cerevisiae deletion strains, growth OD, locus YBR021W, strain FUR4, stronger effect = lower value
In all, about 5,500 compounds went through this assay and about 2,000 (36%) were called active. Not shown: some 18% with an inconclusive outcome. Some of the results follow.
Observation Type: normalized growth
Give bare numbers.

1) C#CCN(C)Cc1ccccc1 : 1.02
2) CN1CC(=O)N=C1N : 1
3) COc1ccc(C(=O)CC(=O)O)c2c1C=CC(C)(C)O2 : 0.986
4) CC1COc2c(N3CCN(C)CC3)c(F)cc3c(=O)c(C(=O)O)cn1c23 (configuration not stated) : 1.01

Give normalized growth for all compounds that follow.
1. NCCC(O)C(=O)NC1CC(N)C(OC2OC(CN)C(O)C(O)C2N)C(OC2OC(CO)C(O)C2O)C1O (configuration not stated)
2. CN1CCC(OC(c2ccccc2)c2ccccc2)CC1
3. CCCCCCC(C)OC(=O)COc1cc(Cl)c(Cl)cc1Cl (configuration not stated)

Output:
[0.976, 0.985, 0.985]

Give normalized growth for all compounds that follow.
1. O=S(=O)(O)CCS
2. COc1cc2nc(N(C)CCCNC(=O)C3CCCO3)nc(N)c2cc1OC (configuration not stated)
3. NS(=O)(=O)c1cc2c(cc1Cl)NC=NS2(=O)=O
4. O=C(O)CCCc1ccc(N(CCCl)CCCl)cc1
5. CN(C)CCN(Cc1cccs1)c1ccccn1
6. C=CCc1ccc(OC(=O)c2ccccc2)c(OC)c1
7. COc1ccc(CN(CCN(C)C)c2ccccn2)cc1
8. COC(=O)CC1C2(C)CC34OC5(C)OC6(C7/C(=C(/O)C(C)C)C(=O)OC(c8ccoc8)C7(C)C(OC(=O)C(C)C)C(OC)C6(O5)C13C)C(OC)C4(OC)C2OC(C)=O (configuration not stated)

Output:
[1.01, 0.994, 1, 1.01, 1.01, 1, 0.995, 1.02]

====

assay: chemical genetic growth profiling, strain panel (AID 1159580);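 note: tested at 20 µM; growth read once vehicle control cultures reached saturation at 30 °C; 1 = growth at the plate median or of vehicle wells; lower values mean less growth of the strain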; details: S. cerevisiae deletion strains, growth OD, locus YGL167C, strain pmr1, stronger effect = lower value
Among all 5,500 compounds or so, about 2,000 (36%) were called active. Not shown: some 18% with an inconclusive outcome. This is one part of the list.
Please provide measured normalized growth for the entries that follow.
One number for each entry.

Here is how some compounds turned out for normalized growth.
1) O=C1CCC(N2C(=O)c3ccccc3C2=O)C(=O)N1 (stereo not given) : 1.02
2) COc1c(N2CCNC(C)C2)c(F)cc2c(=O)c(C(=O)O)cn(C3CC3)c12 (stereo not given) : 1
3) C[C@H]1COc2c(N3CCN(C)CC3)c(F)cc3c(=O)c(C(=O)O)cn1c23 : 1.03
4) O=C(O)c1cc2cc(F)ccc2[nH]1 : 0.982
5) COC(=O)c1cc(=O)c(O)c2c(O)c(O)ccc2c1 : 0.98
6) O=C(O)CCCc1ccccc1 : 0.995
7) CCn1cc(C(=O)O)c(=O)c2cc(F)c(N3CCNC(C)C3)c(F)c21 (stereo not given) : 0.98
8) O=c1cccc2ccc(O)c(O)c2c1O : 0.955

Give normalized growth for all compounds that follow.
1. Cc1ccc(C(=O)Nc2ccc(S(=O)(=O)O)c3cc(S(=O)(=O)O)cc(S(=O)(=O)O)c23)cc1NC(=O)c1cccc(NC(=O)Nc2cccc(C(=O)Nc3cc(C(=O)Nc4ccc(S(=O)(=O)O)c5cc(S(=O)(=O)O)cc(S(=O)(=O)O)c45)ccc3C)c2)c1
2. CC1COc2c(N3CCN(C)CC3)c(F)cc3c(=O)c(C(=O)O)cn1c23 (stereo not given)

Output:
1.01
0.985
